# System: Ruminococcus flavefaciens
# TEST: qPCR absolute quantification of Ruminococcus flavefaciens after in vitro rumen incubation
# Format: cell-based
# RUN_CONDITIONS: 0.2 mmol/L, 24 h
ENDPOINT_NAME: Ruminococcus flavefaciens (absolute quantification, qPCR)

So for NC(=O)CI [IA, iodoacetamide] , the logged Ruminococcus flavefaciens (absolute quantification, qPCR) turned out to be 8.51^A

So for NC(=O)CO [GA, glycolamide] , the logged Ruminococcus flavefaciens (absolute quantification, qPCR) turned out to be 8.29^B

So for CCC(N)=O [PA, propionamide] , the logged Ruminococcus flavefaciens (absolute quantification, qPCR) turned out to be 8.31^B

So for C=CC(N)=O [AA, acrylamide] , the logged Ruminococcus flavefaciens (absolute quantification, qPCR) turned out to be 8.31^B

So for NC(=O)CCl [CLA, 2-chloroacetamide] , the logged Ruminococcus flavefaciens (absolute quantification, qPCR) turned out to be 8.27^B

----------
# Tested on: Ruminococcus albus
# TEST: qPCR absolute quantification of Ruminococcus albus after in vitro rumen incubation
# Type: cell-based
# RUN_CONDITIONS: 0.2 mmol/L, 24 h
For each of the compounds below, state its Ruminococcus albus (absolute quantification, qPCR).

So for NC(=O)CO [GA, glycolamide] , the logged Ruminococcus albus (absolute quantification, qPCR) turned out to be 7.71^B

So for NC(=O)CI [IA, iodoacetamide] , the logged Ruminococcus albus (absolute quantification, qPCR) turned out to be 7.83^AB

So for C=CC(N)=O [AA, acrylamide] , the logged Ruminococcus albus (absolute quantification, qPCR) turned out to be 7.77^B

So for NC(=O)CCl [CLA, 2-chloroacetamide] , the logged Ruminococcus albus (absolute quantification, qPCR) turned out to be 7.96^A

So for CCC(N)=O [PA, propionamide] , the logged Ruminococcus albus (absolute quantification, qPCR) turned out to be 7.71^B

These entries and their values trace back to patent US20260306429A1.
